# targetDesc: RSV F protein of subtype A (strain A2) on recombinant mKate-RSV virus (Respiratory syncytial virus subtype A …, UniProt P03420 26-574)
# assayMethodText: cell-based or functional assay
propertyMeasured: Neut IC50 (µg/ml) subtype A (µg/mL)
Note: unit µg/mL is implicit; provide only the numeric part.

Field: example entries. Status: answers known.
ADI-18915 (antibody, V domains shown, full-length IgG from yeast; also called Antibody Number 269; Ab # 269) VH: QVQLVQSGGGLVKPGGSLRLSCAASGFTFSKAWMNWVRQAPGKGLEWVGRIRSKTDGGTADYAAPVKGRFTMSRDDSKNTLYLQMNSLKTEDTAVYYCATDSRRLYDSRGFYSSAFDVWGQGTTVTVSS VL: QSVLTQPPSVSGAPGQRVTISCTGSSSNIGAGYDVHWYQHLPGTAPKVLIYGNNNRPSGVPDRFSGSKSGTSASLAITGLQAEDEADYYCQSYDDSLTGWVFGGGTKVTVL : 1.2
ADI-18921 (antibody, V domains shown, full-length IgG from yeast) VH: QVQLVQSGSEVKKPGASVRLSCKVAGYSLSELSMHWVRQSPGKGLEWLGAFDHEDAEAIYAPRFQGRITMTADTSTDTAYMELSSLRSEDTAVYYCATPTPVGATDYWGQGTLVTVSS VL: DIQMTQSPSSLSASVGDRVTITCRASQSISSYLNWYQQKPGKAPKLLIYAASSLQRGGPSRFSGSGSGTDFTLTISSLQPEDFATYYCQQSYIIPYTFGQGTKVDIK : 1.7

# ---- query binder ----
Recorded Neut IC50 (µg/ml) subtype A (binder ADI-18879 (antibody, V domains shown, full-length IgG from yeast) VH: EVQLLESGGEVKKPGASVKVSCRASGYTFRNYGLTWVRQAPGQGLEWMGWISAYNGNTNYAQKFQGRVTLTTDTSTSTAYMELRSLRSDDTAVYFCARDVPGHGAAFMDVWGTGTTVTVSS VL: DIQLTQSPLSLPVTLGQPASISCRSSQSLEASDTNIYLSWFQQRPGQSPRRLIYKISNRDSGVPDRFSGSGSGTHFTLRISRVEADDVAVYYCMQGTHWPPAFGQGTKVDIK ): 0.041
